Values compiled from patent US20220388980A1.

# measured target: RAD52 (Homo sapiens, UniProt P43351)
# Construct: made in house
# Sequence (P43351 whole entry): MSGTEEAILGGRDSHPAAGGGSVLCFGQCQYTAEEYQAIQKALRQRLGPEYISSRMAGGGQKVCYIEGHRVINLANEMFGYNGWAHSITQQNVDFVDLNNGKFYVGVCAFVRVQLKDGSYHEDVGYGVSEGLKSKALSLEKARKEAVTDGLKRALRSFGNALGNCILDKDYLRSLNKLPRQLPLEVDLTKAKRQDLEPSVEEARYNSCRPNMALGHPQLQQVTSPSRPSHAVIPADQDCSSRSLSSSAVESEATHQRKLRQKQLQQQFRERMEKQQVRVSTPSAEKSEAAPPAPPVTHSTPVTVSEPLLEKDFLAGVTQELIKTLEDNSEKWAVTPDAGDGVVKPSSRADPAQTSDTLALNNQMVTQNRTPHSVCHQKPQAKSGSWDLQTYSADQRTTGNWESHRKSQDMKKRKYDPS
# procedure text: D-loop formation assay
# Format: biochemical
# test conditions: compound at 10 μM; 32P-labeled ssDNA (oligo 90) and supercoiled pUC19 DNA, 37° C.
Each entry below lists one item and its recorded D-Loop (% @10 μM) value.
I'd appreciate it if you included the unit after the number.

{"molecule": "CCN(CC)CCNC(=S)Nc1ccc2nc(N3CCN(C(=O)C4CNCCN4)CC3)cc(C)c2c1 (stereo not shown)", "result": "27.42%"}

Tested on RAD52 (Homo sapiens, UniProt P43351): Cc1cc(N2CCN(CC3CCCNC3)CC2)nc2ccc(NC(=S)NCCCN3CCCC3)cc12 (stereo not shown) . Observed D-Loop (% @10 μM): 1.5%

Tested on RAD52 (Homo sapiens, UniProt P43351): "Cc1cc(N2CCCC2)nc2ccc(NC(=S)NCCCN)cc12" . Observed D-Loop (% @10 μM): 4.26%

Tested on RAD52 (Homo sapiens, UniProt P43351): "Cc1cc(N2CCN(CC3CCNCC3)CC2)nc2ccc(NC(=S)NCCCN3CCCCCC3)cc12" . Observed D-Loop (% @10 μM): 1.58%

* * *

Each entry below lists one item and its recorded D-Loop (% @10 μM) value.
# measured target: RAD52 (Homo sapiens)
# Construct: made in house
# procedure text: D-loop formation assay
# Assay type: biochemical
# test conditions: compound at 10 μM; 32P-labeled ssDNA (oligo 90) and supercoiled pUC19 DNA, 37° C.
I'd appreciate it if you included the unit after the number.

A selection of reference data follows.
{"molecule": "Cc1cc(N2CCN(CC3CCNCC3)CC2)nc2ccc(NC(=S)NCCN3CCCCCC3)cc12 [compound 0060]", "D-Loop (% @10 μM)": "0.66%"}
{"molecule": "CCN1CCN(c2cc(C)c3cc(NC(=S)N(C)CCCN)ccc3n2)CC1 [compound 0058]", "D-Loop (% @10 μM)": "25.89%"}

For CCN(CC)CCNC(=S)Nc1ccc2nc(N3CCN(CC4CCNCC4)CC3)cc(C)c2c1 [compound 0052] the molecule record lists D-Loop (% @10 μM) as 4.07%

For CCN(CC)CCNC(=S)Nc1ccc2nc(N3CCN(C(=O)C4CCCN4)CC3)cc(C)c2c1 (stereo not shown) [compound 0054] the molecule record lists D-Loop (% @10 μM) as 53.78%

* * *

Each entry below lists one item and its recorded D-Loop (% @10 μM) value.
# measured target: RAD52 (Homo sapiens)
# Construct: made in house
# procedure text: D-loop formation assay
# Type: biochemical
# test conditions: compound at 10 μM; 32P-labeled ssDNA (oligo 90) and supercoiled pUC19 DNA, 37° C.

A selection of reference data follows.
{"compound": "Cc1cc(N2CCCC2)nc2ccc(NC(=S)NCCCN3CCCC3)cc12", "reported metric": "D-Loop (% @10 μM)", "result": "5.98%"}
{"compound": "Cc1cc(N2CCN(CC3CCNCC3)CC2)nc2ccc(NC(=O)NCCCN3CCCCCC3)cc12", "reported metric": "D-Loop (% @10 μM)", "result": "0.34%"}
{"compound": "CCN1CCN(c2cc(C)c3cc(NC(=S)NCCCN4CCCCCC4)ccc3n2)CC1", "reported metric": "D-Loop (% @10 μM)", "result": "46.57%"}
{"compound": "CCN1CCN(c2cc(C)c3cc(NC(=S)NCCC4CCCN4)ccc3n2)CC1 (centres unmarked)", "reported metric": "D-Loop (% @10 μM)", "result": "20.7%"}
{"compound": "Cc1cc(N2CCCCC2)nc2ccc(NC(=S)NCCN3CCCCCC3)cc12", "reported metric": "D-Loop (% @10 μM)", "result": "67.50%"}

For CCN1CCN(c2cc(C)c3cc(NC(=S)NCCN4CCC(CN5CCCC5)C4)ccc3n2)CC1 (centres unmarked) the compound record lists D-Loop (% @10 μM) as 16.42%

For "CCN1CCN(c2cc(C)c3cc(NC(=S)NCCN4CCCC4)ccc3n2)CC1" the compound record lists D-Loop (% @10 μM) as 46.67%

For "CCN(CC)CCNC(=S)Nc1ccc2nc(N3CCCCC3)cc(C)c2c1" the compound record lists D-Loop (% @10 μM) as 70.99%

For "CCN(CC)CCNC(=S)Nc1ccc2nc(N3CCN(CC4CC4)CC3)cc(C)c2c1" the compound record lists D-Loop (% @10 μM) as 44.4%

For "CCN1CCN(c2cc(C)c3cc(NC(=S)NCCN4CCN(C)CC4)ccc3n2)CC1" the compound record lists D-Loop (% @10 μM) as 18.73%

For "CCN1CCN(c2cc(C)c3cc(NC(=S)NCCCCN)ccc3n2)CC1" the compound record lists D-Loop (% @10 μM) as 7.92%

For Cc1cc(N2CCN(CC3CCCNC3)CC2)nc2ccc(NC(=S)NCCCN3CCCCCC3)cc12 (centres unmarked) the compound record lists D-Loop (% @10 μM) as 1.89%

For "CCN1CCN(c2cc(C)c3cc(NC(=S)NCCN4CCCCC4)ccc3n2)CC1" the compound record lists D-Loop (% @10 μM) as 36.08%

For "CCN(CC)CCNC(=S)Nc1ccc2nc(N3CCCC3)cc(C)c2c1" the compound record lists D-Loop (% @10 μM) as 8.25%

For CCN(CC)CCNC(=S)Nc1ccc2nc(N3CCN(CC4CCCNC4)CC3)cc(C)c2c1 (centres unmarked) the compound record lists D-Loop (% @10 μM) as 10.13%

For Cc1cc(N2CCN(CC3CCCNC3)CC2)nc2ccc(NC(=S)NCCN3CCCCCC3)cc12 (centres unmarked) the compound record lists D-Loop (% @10 μM) as 1.3%

For "CCN(CC)CCNC(=O)C(=O)Nc1ccc2nc(N3CCN(CC)CC3)cc(C)c2c1" the compound record lists D-Loop (% @10 μM) as 16%

* * *

# measured target: RAD52 (Homo sapiens, UniProt P43351)
# Construct: made in house
# procedure text: D-loop formation assay
# Type: biochemical
# test conditions: compound at 10 μM; 32P-labeled ssDNA (oligo 90) and supercoiled pUC19 DNA, 37° C.
reported metric: D-Loop (% @10 μM) (%)
The answer is to be given in %; state only the numeric part.

A selection of reference data follows.
{"molecule": "CCN(CC)CCNC(=S)Nc1ccc2nc(N3CCN(Cc4nccn4C)CC3)cc(C)c2c1 [compound 0084]", "measured target": "RAD52 (Homo sapiens, UniProt P43351)", "scale unit": "%", "D-Loop (% @10 μM)": 68.84}
{"molecule": "CCC(C)[C@H](N)C(=O)N1CCN(c2cc(C)c3cc(NC(=S)NCCN(CC)CC)ccc3n2)CC1 (stereo partly shown) [compound 0053]", "measured target": "RAD52 (Homo sapiens, UniProt P43351)", "scale unit": "%", "D-Loop (% @10 μM)": 54.13}
{"molecule": "Cc1cc(N2CCCC2)nc2ccc(NC(=S)NCCCCN)cc12 [compound 0095]", "measured target": "RAD52 (Homo sapiens, UniProt P43351)", "scale unit": "%", "D-Loop (% @10 μM)": 4.51}

For CCN1CCN(c2cc(C)c3cc(NC(=S)NCCN4CCCCCCC4)ccc3n2)CC1 [compound 0041] the molecule record lists D-Loop (% @10 μM) as 62.62

For CCN(CC)CCNC(=S)Nc1ccc2nc(N3CCN(CC(N)CO)CC3)cc(C)c2c1 (stereo not shown) [compound 0086] the molecule record lists D-Loop (% @10 μM) as 4.44

For CCN1CCN(c2cc(C)c3cc(NC(=S)NCCCN4CCC4)ccc3n2)CC1 [compound 0042] the molecule record lists D-Loop (% @10 μM) as 53.70

For CCN1CCN(c2cc(C)c3cc(NC(=S)NCCN4CCNCC4)ccc3n2)CC1 [compound 0045] the molecule record lists D-Loop (% @10 μM) as 55.68

For Cc1cc(N2CCCC2)nc2ccc(NC(=S)NCCN)cc12 [compound 0093] the molecule record lists D-Loop (% @10 μM) as 4.86

For CCN(CC)CCNC(=S)Nc1ccc2nc(N3CCN(CCC4CCC(N)CC4)CC3)cc(C)c2c1 (stereo not shown) [compound 0087] the molecule record lists D-Loop (% @10 μM) as 0

For CCN1CCN(c2cc(C)c3cc(NC(=S)NCCN(C(C)C)C(C)C)ccc3n2)CC1 [compound 0035] the molecule record lists D-Loop (% @10 μM) as 64.68

For CCN1CCN(c2cc(C)c3cc(NC(=S)NCCCNC)ccc3n2)CC1 [compound 0057] the molecule record lists D-Loop (% @10 μM) as 52.1

For CCN1CCN(c2cc(C)c3cc(NC(=S)NCCCN4CCNCC4)ccc3n2)CC1 [compound 0079] the molecule record lists D-Loop (% @10 μM) as 25.15

For CCN1CCN(c2cc(C)c3cc(NC(=S)NCCCN4CCCC4)ccc3n2)CC1 [compound 0068] the molecule record lists D-Loop (% @10 μM) as 30.62

For CCN(CC)CCCCNC(=S)Nc1ccc2nc(N3CCN(CC)CC3)cc(C)c2c1 [compound 0036] the molecule record lists D-Loop (% @10 μM) as 64.62
